- Test system: Escherichia coli IAI1
- ASSAY REMARKS: fold change of Putrescine concentration vs plate DMSO controls (fold change (ratio)); higher = more amine produced, active = hit call of the paper (significant change in both replicates, either direction)
- APPLIED CONDITIONS: incubation time: 27 h, anaerobic, 37 °C
Where a name gives a salt, the structure may show the parent alone.

- COMPOUND: "CC12CC3CC(C)(C1)CC(N)(C3)C2 [Memantine hydrochloride] (20 µM)"
  fold change of Putrescine concentration: 0.984
- COMPOUND: "Cc1c(C(=O)NN2CCCCC2)nn(-c2ccc(Cl)cc2Cl)c1-c1ccc(Cl)cc1 [Rimonabant] (20 µM)"
  fold change of Putrescine concentration: 1.01
- COMPOUND: "COc1ccc(CC2c3cc(OC)c(OC)cc3CC[N+]2(C)CCC(=O)OCCCCCOC(=O)CC[N+]2(C)CCc3cc(OC)c(OC)cc3C2Cc2ccc(OC)c(OC)c2)cc1OC (configuration not stated) [Atracurium besylate] (20 µM)"
  fold change of Putrescine concentration: 1.09
- COMPOUND: "CC(C)c1ccc2oc3nc(N)c(C(=O)O)cc3c(=O)c2c1 [Amlexanox] (20 µM)"
  fold change of Putrescine concentration: 1.1
- COMPOUND: "CCN1CCN(C(=O)N[C@@H](C(=O)N[C@@H]2C(=O)N3[C@@H]2SC(C)(C)[C@@H]3C(=O)O)c2ccccc2)C(=O)C1=O [Piperacillin sodium salt] (20 µM)"
  fold change of Putrescine concentration: 1.17
- COMPOUND: "CCC(=O)c1c(O)cc(O)cc1O [Flopropione] (20 µM)"
  fold change of Putrescine concentration: 1
- COMPOUND: "CN(N=O)C(=O)N[C@H]1C(O)O[C@H](CO)[C@@H](O)[C@@H]1O (mixture of isomers) [Streptozotocin] (20 µM)"
  fold change of Putrescine concentration: 1.04

---

- System: Klebsiella aerogenes DSM 30053
- ASSAY REMARKS: fold change of Cadaverine concentration vs plate DMSO controls (fold change (ratio)); higher = more amine produced, active = hit call of the paper (significant change in both replicates, either direction)
- APPLIED CONDITIONS: incubation time: 27 h, anaerobic, 37 °C
Structures can show the parent of a compound that is named as a salt.

- COMPOUND: "CN(C)CCCC1(c2ccc(F)cc2)OCc2cc(C#N)ccc21 (stereo not given) [Citalopram hydrobromide] (20 µM)"
  fold change of Cadaverine concentration: 1.01
- COMPOUND: "CO[C@H]1/C=C/O[C@@]2(C)Oc3c(C)c(O)c4c(O)c(c(/C=N/N5CCN(C6CCCC6)CC5)c(O)c4c3C2=O)NC(=O)/C(C)=C\\C=C\\[C@H](C)[C@H](O)[C@@H](C)[C@@H](O)[C@@H](C)[C@H](OC(C)=O)[C@@H]1C [Rifapentine] (20 µM)"
  fold change of Cadaverine concentration: 1.06
- COMPOUND: "C=CC1=C(C(=O)O)N2C(=O)[C@@H](NC(=O)/C(=N\\OCC(=O)O)c3csc(N)n3)[C@H]2SC1 [Cefixime] (20 µM)"
  fold change of Cadaverine concentration: 1.05
- COMPOUND: "OCC1(O)OC[C@@H](O)[C@@H](O)[C@H]1O (stereo not given in full) [Psicose] (50 µM)"
  fold change of Cadaverine concentration: 1.01
- COMPOUND: "Cc1nccn1CC1CCc2c(c3ccccc3n2C)C1=O (stereo not given) [Ondansetron hydrochloride] (20 µM)"
  fold change of Cadaverine concentration: 0.995
- COMPOUND: "N[C@H](Cc1ccccc1)C(=O)O [D-phenylalanine] (20 µM)"
  fold change of Cadaverine concentration: 1.01
- COMPOUND: "CN(C)CC/C=C1\\c2ccccc2CSc2ccccc21 [Dosulepin hydrochloride] (20 µM)"
  fold change of Cadaverine concentration: 1.06
- COMPOUND: "OCCOCCN1CCN(C2=Nc3ccccc3Sc3ccccc32)CC1 [Quetiapine hemifumarate] (20 µM)"
  fold change of Cadaverine concentration: 1.03
- COMPOUND: "COc1ccc(-c2cc(=O)c3c(O)cc(O[C@@H]4O[C@H](CO[C@@H]5O[C@@H](C)[C@H](O)[C@@H](O)[C@H]5O)[C@@H](O)[C@H](O)[C@H]4O)cc3o2)cc1O [Diosmin] (20 µM)"
  fold change of Cadaverine concentration: 1.02
- COMPOUND: "CN1CC2c3ccccc3Oc3ccc(Cl)cc3C2C1 (stereo not given) [Asenapine maleate] (20 µM)"
  fold change of Cadaverine concentration: 0.998
- COMPOUND: "O=C(O)c1cc(/N=N/c2ccc(S(=O)(=O)Nc3ccccn3)cc2)ccc1O [Sulfasalazine] (20 µM)"
  fold change of Cadaverine concentration: 1.01
- COMPOUND: "O=C1OC(CN2CCOCC2)CN1/N=C/c1ccc([N+](=O)[O-])o1 (stereo not given) [Furaltadone hydrochloride] (20 µM)"
  fold change of Cadaverine concentration: 1.01
- COMPOUND: "CC(=O)OCC(=O)NCCCOc1cccc(CN2CCCCC2)c1 [Roxatidine acetate hydrochloride] (20 µM)"
  fold change of Cadaverine concentration: 1.01
- COMPOUND: "CN(C)CCC(c1ccccc1)c1ccccn1 (stereo not given) [Pheniramine maleate] (20 µM)"
  fold change of Cadaverine concentration: 0.986
- COMPOUND: "CC(C)(CO)[C@@H](O)C(=O)NCCCC(=O)O [Hopantenate calcium] (20 µM)"
  fold change of Cadaverine concentration: 0.988

All figures here come from the supplement of paper PMC12494721.
